# TESTED_ON: T1, recombinant hMCAM-His (human, UniProt P43121 24-559)
# T1 construct: not shown: His tag
# T1 chain: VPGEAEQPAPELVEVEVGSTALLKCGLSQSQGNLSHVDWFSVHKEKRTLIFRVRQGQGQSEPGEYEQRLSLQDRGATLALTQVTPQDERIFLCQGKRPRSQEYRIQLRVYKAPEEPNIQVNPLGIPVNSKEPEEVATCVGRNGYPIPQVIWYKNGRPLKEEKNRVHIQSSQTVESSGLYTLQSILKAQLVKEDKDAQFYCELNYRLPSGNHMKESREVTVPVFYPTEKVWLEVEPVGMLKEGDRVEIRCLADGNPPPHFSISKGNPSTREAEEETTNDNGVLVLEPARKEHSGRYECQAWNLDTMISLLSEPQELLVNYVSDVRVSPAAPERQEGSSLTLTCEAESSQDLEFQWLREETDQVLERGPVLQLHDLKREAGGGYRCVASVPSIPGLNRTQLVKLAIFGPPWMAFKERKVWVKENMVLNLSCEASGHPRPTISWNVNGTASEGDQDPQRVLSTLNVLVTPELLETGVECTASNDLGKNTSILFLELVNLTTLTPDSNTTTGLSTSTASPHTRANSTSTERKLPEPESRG
# MEASUREMENT_DESCRIPTION: competitive ELISA on hMCAM-His, competitor biotinylated rodent or chimeric 2107; vs rodent 2107
READOUT_LABEL: fold over rodent (competitive ELISA)
Could you kindly put the unit after your number?

Worked examples, 2 binders total:
BINDER: h2107_VH6 + h2107_VL3 (antibody, human IgG1, V domains shown) VH: QVTLKESGPVLVKPTETLTLTCTVSGFSLTSNAVSWVRQPPGKALEWIAAISSGGSTYYNSAFKSRLTISRDTSKSQVVLTMTNMDPVDTATYYCARHRPFYFDYWGQGTLVTVSS VL: DIQMTQSPSSLSASVGDRVTINCKGSQNIYKSLAWFQQKPGKVPKLLIYDANSLQTGIPSRFSGSGSGTDFTLTISSLQPEDVATYYCQQYYSGYTFGGGTKVEIK
fold over rodent (competitive ELISA): 9.9 fold

BINDER: h2107_VH5 + h2107_VL1 (antibody, human IgG1, V domains shown) VH: QVTLKESGPVLVKPTETLTLTCTVSGFSLTSQGVSWVRQPPGKALEWIAAISSGGSTYYNSAFKSRLTISPDTSKSQVVLTMTNMDPVDTATYYCARHRPFYFDYWGQGTLVTVSS VL: DIQMTQSPSSLSASVGDRVTITCKGSQNIYKSLAWFQQKPGKVPKLLIYDANSLQTGIPSRFSGSGSGTDFTLTISSLQPEDVATYYCQQYYSGYTFGGGTKVEIK
fold over rodent (competitive ELISA): 3.7 fold

Attention now shifts to the item below.
Tell me fold over rodent (competitive ELISA) reported for h2107_VH1 + h2107_VL1 (antibody, human IgG1, V domains shown) VH: QVTLKESGPVLVKPTETLTLTCTVSGFSLTSNGVSWVRQPPGKALEWIAAISSGGSTYYNSAFKSRLTISRDTSKSQVVLTMTNMDPVDTATYYCARHRPFYFDYWGQGTLVTVSS VL: DIQMTQSPSSLSASVGDRVTITCKGSQNIYKSLAWFQQKPGKVPKLLIYDANSLQTGIPSRFSGSGSGTDFTLTISSLQPEDVATYYCQQYYSGYTFGGGTKVEIK
2.1 fold
